- Tested on: Plasmodium falciparum
- assay.name: Antiplasmodial activity against multi-drug resistant Plasmodium falciparum K1 in human erythrocytes assessed as growth inhibition after 48 hrs by optical microscopy
- Type: functional, organism-based
- measurement.conditions: K1, 48 h
pIC50: −log10 of the molar value. Counter-ions that a name gives are not always drawn.
Reported pIC50 is given for each of the following molecules.

molecule | pIC50
C=C[C@H]1CN2CC[C@H]1C[C@H]2[C@H](O)c1ccnc2ccc(OC)cc12 [QUININE SULFATE] | 6.92
Cc1c2ccncc2c(C)c2c1[nH]c1ccc([N+](=O)[O-])cc12 | 6.26
Cc1c2c(c(C)c3c1[nH]c1ccccc13)CN(C)CC2 | 5.38
Cc1c2ccncc2c(C)c2c1[nH]c1c([N+](=O)[O-])cccc12 | 4.89
Cc1c2ccncc2c(C)c2c1[nH]c1ccccc12 | 6.09
